# test name: qHTS assay for small molecule activators of the heat shock response signaling pathway - cell viability counter screen (AID 743209); further: nearly all actives have a fitted effect of over 50% in size
# measurement conditions: HSE-bla HeLa viability, CellTiter-Glo luminescence, 5 h; series mostly up to 62.6 µM
Records with an inconclusive call do not appear. Activity calls are given as the source filed them. The call rests on the fitted dose curve; in most records, active means well fitted cell-killing curve with a large enough effect in the repeat runs; inconclusive means weak or mixed curves, or effect the other way; inactive means no such curve, though single readings can be large or run the other way.
Possible outcomes: true (1) for active, false (0) for inactive

molecule	cat
OCC1CC2CC1C1CCC(CO)C21 (stereo not given)	false (0)
CCCCCCCCCCCCCCCBr	false (0)
Cc1ncsc1CCO	false (0)
CN(C(=O)CCCOc1ccc2[nH]c(=O)ccc2c1)C1CCCCC1	false (0)
CCCCC(CC)(CO)CO	false (0)
CC(=O)NCCCS(=O)(=O)O	false (0)
CCCCCCc1ccc(N)cc1	false (0)
CCOc1cc(OCC)c(C(=O)CCC(=O)O)cc1OCC	false (0)
CN1CCC(=C2c3ccccc3C=Cc3ccccc32)CC1	false (0)
CC(C)CCCC(C)CCO (stereo not given)	false (0)
COc1ccc(C(C)=O)cc1	false (0)
O=C(Cl)c1c(Cl)cccc1Cl	false (0)
CCCCOC(=O)/C=C\C(=O)OCCCC	false (0)
C#CCOC(=O)[C@@H](C)Oc1ccc(Oc2ncc(Cl)cc2F)cc1	false (0)
Cc1ccc(O)c([C@H](CCN(C(C)C)C(C)C)c2ccccc2)c1	false (0)
CCCCOC(O)CC (stereo not given)	false (0)
C[C@@H](C1=C(CCN(C)C)Cc2ccccc21)c1ccccn1	false (0)
O=C1c2cccc(O)c2C(=O)c2c(O)cc(CO)cc21	false (0)
CC(=O)OCCc1ccccc1	false (0)
CNS(=O)(=O)Cc1ccc2[nH]cc(CCN(C)C)c2c1	false (0)
CN1CCC(=C2c3ccccc3CCc3sccc32)CC1	false (0)
COc1ccc(OC)c(OC)c1	false (0)
Cc1cc(CC(=O)O)c(C)n1-c1ccc(Cl)cc1	false (0)
Cn1c(NCCN(CCO)CCCc2ccc([N+](=O)[O-])cc2)cc(=O)n(C)c1=O	false (0)
NCCCOCCOCCOCCCN	false (0)
CCOc1ccc2[nH]cc(C(=O)NCc3ccccc3)c(=O)c2n1	false (0)
Cc1cccc(C(C)(C)C)c1O	false (0)
COCCO	false (0)
COCCOCCOCCOCCOC	false (0)
NC(N)=NN=C(/C=C/c1ccc([N+](=O)[O-])o1)/C=C/c1ccc([N+](=O)[O-])o1	true (1)
O=c1c2ccccc2nnn1CCl	false (0)
CC(=O)N(CC(=O)N(C)C)c1ccccc1	false (0)
CC1=CCC(C(C)C)C=C1 (stereo not given)	false (0)
CC(=O)OC/C=C/c1ccccc1	false (0)
COc1ccccc1OC(=O)Oc1ccccc1OC	false (0)

* * *

# test target: Cytochrome P450 2C19 (Homo sapiens) (UniProt P33261)
# Sequence (P33261 whole entry, looked up): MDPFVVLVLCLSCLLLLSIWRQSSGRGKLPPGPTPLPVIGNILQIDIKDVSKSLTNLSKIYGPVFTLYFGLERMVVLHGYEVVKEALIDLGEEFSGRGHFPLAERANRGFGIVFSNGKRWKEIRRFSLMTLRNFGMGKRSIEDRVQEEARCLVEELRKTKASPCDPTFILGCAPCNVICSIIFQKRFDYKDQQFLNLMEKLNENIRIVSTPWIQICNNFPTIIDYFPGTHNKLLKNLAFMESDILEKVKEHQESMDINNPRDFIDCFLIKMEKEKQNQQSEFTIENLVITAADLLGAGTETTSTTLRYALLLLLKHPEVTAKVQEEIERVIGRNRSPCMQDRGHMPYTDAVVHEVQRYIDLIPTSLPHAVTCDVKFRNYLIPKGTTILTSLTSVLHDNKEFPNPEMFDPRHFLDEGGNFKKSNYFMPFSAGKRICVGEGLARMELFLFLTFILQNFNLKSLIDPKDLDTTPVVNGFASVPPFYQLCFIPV
# test name: Cytochrome P450 Family 2 Subfamily C Member 19 (CYP2C19) small molecule antagonists: luciferase reporter qHTS assay (AID 1671197); further: nearly all actives have a fitted effect of over 65% in size
# measurement conditions: P450-Glo CYP2C19 enzyme, luciferin luminescence, 1 h; series mostly up to 115 µM
Results filed as inconclusive are left out. Active and inactive are the calls of the source. Calls come from the whole dose curve; as a rule, active = well fitted inhibition curve with a large enough effect in the repeat runs; inconclusive = weak or mixed curves; inactive = no such curve, though single readings can be large or run the other way.
Possible outcomes: TRUE (active), FALSE (inactive)

molecule	cat
O=C(O)[C@@H]1[C@H]2C[C@H]3c4[nH]c5ccccc5c4CCN3C[C@@H]2CC[C@@H]1O	TRUE
CCCC(=O)OCC	FALSE
Cc1ccc(C)o1	FALSE
O=C(O)COC(=O)Cc1ccccc1Nc1c(Cl)cccc1Cl	FALSE
COCCCCCCCCOCCC[Si](C)(O[Si](C)(C)C)O[Si](C)(C)C	TRUE
CC[C@H](C)[C@H](N)C(=O)O	FALSE
C=CC[N+]1([C@H]2C[C@H]3[C@@H]4CC[C@H]5C[C@H](OC(C)=O)[C@@H](N6CCCCC6)C[C@]5(C)[C@H]4CC[C@]3(C)[C@H]2OC(=O)CC)CCCCC1	FALSE
CC(C(=O)O)c1ccc(-c2ccccc2)c(F)c1 (stereo not drawn)	FALSE
CC1(C)CCC(C)(C)c2cc(NC(=O)c3ccc(C(=O)O)cc3)ccc21	FALSE
Nc1nc(N)c(-c2ccccc2)s1	FALSE
CC(C)(C)C(=O)OCOP(=O)(COCCn1cnc2c(N)ncnc21)OCOC(=O)C(C)(C)C	FALSE
CC(=O)CC(=O)c1ccccc1	TRUE
CC[C@@H]1C[C@H](N(Cc2cc(C(F)(F)F)cc(C(F)(F)F)c2)C(C)=O)c2cc(C(F)(F)F)ccc2N1C(=O)OC(C)C	FALSE
FC(F)(F)C(F)(F)C(F)(F)C(F)(F)C(F)(F)C(F)(F)CCI	FALSE
CC[C@]12CCCN3CCc4c(n(c5ccccc45)C(=O)C1)[C@@H]32	TRUE
CCOC(=O)CC(C)C	FALSE
CCCCCCCCCCCCCCCC(=O)OC/C=C(C)/C=C/C=C(C)/C=C/C1=C(C)CCCC1(C)C	TRUE
CCOC(=O)[C@H](CCc1ccccc1)N[C@H]1CCc2ccccc2N(CC(=O)O)C1=O	TRUE
CCCCCC(CO)CCC (stereo not drawn)	FALSE
CC(=O)[C@@]1(O)CC[C@H]2[C@@H]3C[C@H](C)C4=CC(=O)CC[C@]4(C)[C@H]3CC[C@@]21C	TRUE
CC(C)(C)c1ccc(OCC2CO2)cc1 (stereo not drawn)	TRUE
CN1CCN(C2=Nc3ccccc3Sc3ccc(Cl)cc32)CC1	TRUE
Cn1c(N)nc2nc[nH]c2c1=O	FALSE
